The measured values listed here are drawn from ChEMBL document CHEMBL3352483.

- method_notes: Antiproliferative activity against human HCT116 cells after 24 hrs by MTT assay
- Format: functional, cell-based
- recorded_conditions: HCT-116, 24 h
Below, each entry is listed with its recorded IC50.
Give the value, in units of µM, as a plain number.

Worked cases, answers included:
smiles_entry: CC1(C)C=Cc2c(ccc3c(=O)c(-c4ccc(C(F)(F)F)cc4Cl)coc23)O1
IC50 [µM]: 3.8
--
smiles_entry: COc1cc(OC)c(-c2coc3cc(OCc4ccc(C#N)cc4)ccc3c2=O)cc1OC
IC50 [µM]: 4.22
--
smiles_entry: COc1cc(OC)c(-c2coc3cc(OCc4ccc(Cl)cc4)ccc3c2=O)cc1OC
IC50 [µM]: 4.45

Exercise: Dear colleague, I am looking for the recorded IC50 of the following compound: COc1cc(OC)c(-c2coc3cc(OCc4ccc(F)cc4)ccc3c2=O)cc1OC
Solution: 0.95

Exercise: Dear colleague, I am looking for the recorded IC50 of the following compound: COc1cc(OC)c(-c2coc3cc(OCc4cccc(Cl)c4)ccc3c2=O)cc1OC
Solution: 1.33

Exercise: Dear colleague, I am looking for the recorded IC50 of the following compound: C#CCOc1ccc2c(=O)c(-c3cc(OC)c(OC)cc3OC)coc2c1
Solution: 8.05

* * *

Below, each entry is listed with its recorded pIC50.
- System: U-251
- method_notes: Antiproliferative activity against human U251 cells after 24 hrs by MTT assay
- Assay type: functional, cell-based
- recorded_conditions: U-251, 24 h
For clarity, pIC50 is expressed as the negative log10 of concentration in mol/L.

smiles_entry: COc1cc(OC)c(-c2coc3cc(OCc4ccc(C#N)cc4)ccc3c2=O)cc1OC
pIC50: 5.21

// below: pIC50 requested for another compound
Exercise: Dear colleague, I am looking for the recorded pIC50 of the following compound: COc1ccc2c(=O)c(-c3cc(OC)c(OC)cc3OC)coc2c1
Solution: 5.03

* * *

- method_notes: Antiproliferative activity against human HCT116 cells after 24 hrs by MTT assay
- Assay type: functional, cell-based
- recorded_conditions: HCT-116, 24 h
observable: IC50

Worked cases, answers included:
smiles_entry: COc1cc(-c2coc3c4c(ccc3c2=O)OC(C)(C)C=C4)cc(OC)c1OC
observable: IC50
measured_value: > 10 µM
--
smiles_entry: COc1cc(OC)c(-c2coc3cc(OC(=O)Cc4cccc(C(F)(F)F)c4)ccc3c2=O)cc1OC
observable: IC50
measured_value: > 10 µM
--
smiles_entry: COc1cc(OC)c(-c2coc3cc(OCc4ccccc4C(F)(F)F)ccc3c2=O)cc1OC
observable: IC50
measured_value: 4.76 µM
--
smiles_entry: COc1ccc(-c2coc3c4c(ccc3c2=O)OC(C)(C)C=C4)cc1OC
observable: IC50
measured_value: > 10 µM
--
smiles_entry: COc1cccc(-c2coc3c4c(ccc3c2=O)OC(C)(C)C=C4)c1
observable: IC50
measured_value: > 10 µM
--
smiles_entry: COc1ccc(-c2coc3c4c(ccc3c2=O)OC(C)(C)C=C4)c(OC)c1OC
observable: IC50
measured_value: > 10 µM
--
smiles_entry: COc1ccc(OC)c(-c2coc3c4c(ccc3c2=O)OC(C)(C)C=C4)c1
observable: IC50
measured_value: > 10 µM
--
smiles_entry: CC1(C)C=Cc2c(ccc3c(=O)c(-c4ccc(C=O)cc4)coc23)O1
observable: IC50
measured_value: > 10 µM
--
smiles_entry: CC(=O)c1ccc(-c2coc3c4c(ccc3c2=O)OC(C)(C)C=C4)cc1
observable: IC50
measured_value: > 10 µM
--
smiles_entry: COc1ccc(-c2coc3c4c(ccc3c2=O)OC(C)(C)C=C4)c(OC)c1
observable: IC50
measured_value: > 10 µM

Exercise: Dear colleague, I am looking for the recorded IC50 of the following compound: COc1cccc(C(=O)Oc2ccc3c(=O)c(-c4cc(OC)c(OC)cc4OC)coc3c2)c1
Solution: > 10 µM

Exercise: Dear colleague, I am looking for the recorded IC50 of the following compound: COc1cc(OC)c(-c2coc3c4c(ccc3c2=O)OC(C)(C)C=C4)cc1OC
Solution: 2.36 µM

Exercise: Dear colleague, I am looking for the recorded IC50 of the following compound: COc1cc(OC)c(-c2coc3cc(OCc4ccc(Br)cc4)ccc3c2=O)cc1OC
Solution: 1.98 µM

Exercise: Dear colleague, I am looking for the recorded IC50 of the following compound: COc1cc(OC)c(-c2coc3cc(OCc4ccccc4Br)ccc3c2=O)cc1OC
Solution: 4.55 µM

Exercise: Dear colleague, I am looking for the recorded IC50 of the following compound: COc1cc(OC)c(-c2coc3cc(OCc4ccc(C(F)(F)F)cc4)ccc3c2=O)cc1OC
Solution: 2.44 µM

Exercise: Dear colleague, I am looking for the recorded IC50 of the following compound: COc1cc(OC)c(-c2coc3cc(OCc4ccc([N+](=O)[O-])cc4)ccc3c2=O)cc1OC
Solution: > 10 µM

Exercise: Dear colleague, I am looking for the recorded IC50 of the following compound: COc1cc(OC)cc(-c2coc3c4c(ccc3c2=O)OC(C)(C)C=C4)c1
Solution: > 10 µM

Exercise: Dear colleague, I am looking for the recorded IC50 of the following compound: CC1(C)C=Cc2c(ccc3c(=O)c(-c4cccc(C=O)c4)coc23)O1
Solution: > 10 µM

Exercise: Dear colleague, I am looking for the recorded IC50 of the following compound: CC1(C)C=Cc2c(ccc3c(=O)c(-c4ccc(C(F)(F)F)cc4)coc23)O1
Solution: 7 µM

Exercise: Dear colleague, I am looking for the recorded IC50 of the following compound: COc1cc(OC)c(-c2coc3cc(OCC=C(C)C)ccc3c2=O)cc1OC
Solution: 0.68 µM
